A collection of molecules and their measured solubility thermodynamic at 24 h
ASSAY DETAILS: Thermodynamic solubility of the compound at pH 7.4 after 24 hrs by UPLC-MS analysis
Type: physicochemical
CONDITION DESCRIPTION: buffer, read-out: Therm_solubility
MEASURED ENDPOINT: solubility thermodynamic at 24 h (µM)

SMILES REPRESENTATION: CC(C)C[C@@H]1NC(=O)[C@@H](CC(C)C)NC(=O)[C@H]2CCCN2C(=O)[C@H](CC(C)C)NC(=O)[C@H](CCC(=O)N2CCCC2)NC(=O)[C@@H](CC(C)C)NC1=O
EXPERIMENTAL VALUE: 550
//
SMILES REPRESENTATION: CC(C)C[C@@H]1NC(=O)[C@@H](CC(C)C)NC(=O)[C@H](CC(C)C)NC(=O)[C@@H](CC(=O)N2CCCC2)NC(=O)[C@H]2CCCN2C(=O)[C@H](CC(C)C)NC1=O
EXPERIMENTAL VALUE: 670
//
SMILES REPRESENTATION: CC(C)C[C@@H]1NC(=O)[C@@H](CC(C)C)NC(=O)[C@@H](CC(C)C)NC(=O)[C@@H](CC(C)C)NC(=O)[C@H]2CCCN2C(=O)[C@H](CCC(=O)N2CCCC2)NC1=O
EXPERIMENTAL VALUE: 720
